Hey, just so you know, these numbers are from the supplement of paper PMC9112550.

Listing of entries alongside the reported shrunken log2 fold change.
tested on: Escherichia coli TOP10; experiment: shrunken log2 fold change of peptide-encoding DNA abundance (4.5 h post-induction vs induction); higher = less antimicrobial activity (less host growth inhibition); settings: time post-induction: 4.5 h; library: site-saturation at positions 5, 18, 19, 20

residueString | shrunken log2 fold change
RRIRARPPRLPRPRPRPRSYPRP | 0.242
RRIRRRPPRLPRPRPRPYWLPRP | -0.578
RRIRNRPPRLPRPRPRPTPMPRP | 0.0289
RRIRTRPPRLPRPRPRPLKQPRP | 0.0283
RRIRIRPPRLPRPRPRPLGEPRP | -0.277
RRIRNRPPRLPRPRPRPEGPPRP | 0.026
RRIRERPPRLPRPRPRPYDIPRP | -0.136
RRIRQRPPRLPRPRPRPREQPRP | -0.00783
RRIRERPPRLPRPRPRPILSPRP | -0.316
RRIRDRPPRLPRPRPRPQQHPRP | 0.0276
RRIRIRPPRLPRPRPRPKHNPRP | -0.349
RRIRIRPPRLPRPRPRPAWDPRP | -0.0871
RRIRCRPPRLPRPRPRPYSFPRP | -0.414
RRIRYRPPRLPRPRPRPNPFPRP | -0.0444
RRIRTRPPRLPRPRPRPGDEPRP | 0.195

----------
Each entry below carries its reported shrunken log2 fold change.
test system: Escherichia coli TOP10; assay: shrunken log2 fold change of peptide-encoding DNA abundance (4.5 h post-induction vs induction); higher = less antimicrobial activity (less host growth inhibition); details: time post-induction: 4.5 h; library: site-saturation at positions 5, 18, 19, 20
property: shrunken log2 fold change

residueString | observedValue
RRIRQRPPRLPRPRPRPKYKPRP | -0.445
RRIRHRPPRLPRPRPRPGLCPRP | 0.101
RRIRRRPPRLPRPRPRPWTRPRP | -0.0224
RRIRERPPRLPRPRPRPCFYPRP | -0.43
RRIRHRPPRLPRPRPRPNPRPRP | -0.0621
RRIRPRPPRLPRPRPRPSMQPRP | -0.29
RRIRWRPPRLPRPRPRPNRQPRP | 0.175
RRIRHRPPRLPRPRPRPYKQPRP | -0.0238
RRIRRRPPRLPRPRPRPLEPPRP | 0.582
RRIRKRPPRLPRPRPRPNNCPRP | -0.256
RRIRIRPPRLPRPRPRPPYGPRP | -0.202
RRIRNRPPRLPRPRPRPVIGPRP | -0.00814
RRIRDRPPRLPRPRPRPQRQPRP | 0.0345
RRIRIRPPRLPRPRPRPTYHPRP | -0.949
RRIRGRPPRLPRPRPRPHCAPRP | 0.606

----------
system: Escherichia coli TOP10; assay: shrunken log2 fold change of peptide-encoding DNA abundance (4.5 h post-induction vs induction); higher = less antimicrobial activity (less host growth inhibition); settings: time post-induction: 4.5 h; library: site-saturation at positions 5, 18, 19, 20;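 note: peptides expressed intracellularly from a pBAD plasmid library in pooled LB shake-flask culture, induced with 0.3% L-arabinose, DNA abundance read by NGS, three biological replicates, DESeq2 with apeglm shrinkage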
Label scheme for shrunken log2 fold change: category 1 (below -0.05), category 2 (-0.05 to below 0.1), category 3 (0.1 or more)

residueString | groupLabel
RRIRHRPPRLPRPRPRPMTMPRP | category 1
RRIRFRPPRLPRPRPRPWPVPRP | category 3
RRIRPRPPRLPRPRPRPALTPRP | category 3
RRIRPRPPRLPRPRPRPTDCPRP | category 3
RRIRIRPPRLPRPRPRPSMVPRP | category 1
RRIRARPPRLPRPRPRPMCWPRP | category 3
RRIRERPPRLPRPRPRPHYVPRP | category 2
RRIRQRPPRLPRPRPRPMCPPRP | category 2
RRIRHRPPRLPRPRPRPGCTPRP | category 1
RRIRFRPPRLPRPRPRPYPQPRP | category 1
RRIRERPPRLPRPRPRPKAFPRP | category 2
RRIRQRPPRLPRPRPRPGMCPRP | category 2
RRIRNRPPRLPRPRPRPDRGPRP | category 2
RRIRWRPPRLPRPRPRPNLFPRP | category 3
